Target: T1, biotinylated hBLyS-ECD (human, UniProt Q9Y275 134-285, biotinylated with Biotin-X-X-NHS (molar ratio 7:1), sites not stated)
T1 construct: The hBLyS-ECD of Embodiment 1 after biotinylation (Embodiment 2); also called biotinylated immunogen; BLyS protein; not shown: His tag of the pCPC vector
T1 sequence (Q9Y275 134-285): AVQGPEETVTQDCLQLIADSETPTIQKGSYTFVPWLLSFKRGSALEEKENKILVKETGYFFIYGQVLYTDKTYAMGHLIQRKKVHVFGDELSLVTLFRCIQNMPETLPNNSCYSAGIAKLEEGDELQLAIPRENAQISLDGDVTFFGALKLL
Test: ELISA: biotinylated hBLyS-ECD captured on streptavidin, antibody titrated, HRP secondary antibody
assay_readout: EC50 (read off the curve)

Sample records with EC50 (read off the curve):
binder	EC50 (read off the curve)
c8E7D9C7F5 (antibody, human IgG1, V domains shown, also called BLyS chimeric antibody) VH: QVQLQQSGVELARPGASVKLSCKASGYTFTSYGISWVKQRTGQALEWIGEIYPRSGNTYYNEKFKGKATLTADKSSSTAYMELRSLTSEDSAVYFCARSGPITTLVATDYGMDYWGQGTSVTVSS VL: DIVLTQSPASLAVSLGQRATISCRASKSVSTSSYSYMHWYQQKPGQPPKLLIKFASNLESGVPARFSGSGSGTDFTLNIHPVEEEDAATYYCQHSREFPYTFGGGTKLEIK	~0.1 nM
h97A3C2H4-9 (antibody, human IgG1, V domains shown, Humanized (VH.1b / Vk.1d); also called humanized BLyS antibody) VH: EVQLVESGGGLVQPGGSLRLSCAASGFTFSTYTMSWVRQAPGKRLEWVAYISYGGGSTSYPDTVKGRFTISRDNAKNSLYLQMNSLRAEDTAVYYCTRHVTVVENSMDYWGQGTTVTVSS VL: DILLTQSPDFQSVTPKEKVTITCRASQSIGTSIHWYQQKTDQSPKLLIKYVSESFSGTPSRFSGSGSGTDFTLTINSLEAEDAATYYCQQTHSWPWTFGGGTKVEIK	0.1 to 0.2 nM

Please give the measured EC50 (read off the curve) for this binder: h8E7D9C7F5-1 (antibody, human IgG1, V domains shown, Humanized (VH.1 / Vk.1); also called humanized BLyS antibody) VH: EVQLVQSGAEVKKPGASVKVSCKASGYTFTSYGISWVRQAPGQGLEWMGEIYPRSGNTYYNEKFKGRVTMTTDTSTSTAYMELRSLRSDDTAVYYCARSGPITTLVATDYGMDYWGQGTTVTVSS VL: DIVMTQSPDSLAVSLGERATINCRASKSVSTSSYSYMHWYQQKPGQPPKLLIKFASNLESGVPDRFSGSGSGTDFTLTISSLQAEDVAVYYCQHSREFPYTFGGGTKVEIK ~0.08 nM

Please give the measured EC50 (read off the curve) for this binder: c97A3C2H4 (antibody, human IgG1, V domains shown, also called BLyS chimeric antibody) VH: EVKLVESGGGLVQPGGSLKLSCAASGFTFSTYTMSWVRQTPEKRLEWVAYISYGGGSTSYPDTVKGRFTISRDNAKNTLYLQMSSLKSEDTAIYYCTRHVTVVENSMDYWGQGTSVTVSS VL: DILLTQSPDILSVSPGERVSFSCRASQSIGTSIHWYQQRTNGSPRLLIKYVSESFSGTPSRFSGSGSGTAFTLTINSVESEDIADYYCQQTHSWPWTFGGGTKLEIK ~0.1 nM
